Entry source: the array DNA melting data of Ke et al. (doi:10.1101/2024.01.08.574731)

- method_description: melting temperature; fluorescence melt of hairpins on a sequencing array, two-state fit, raised by 9.35 °C to match UV melts
- recorded_conditions: sodium 0.088 M
observable: Tm
# answer = value followed by unit

Previously resolved entries follow.
input_sequence: GTTTAGAAATAAAC (((((....)))))
Tm: 28.4 °C
--
input_sequence: GGGATCGAAAGATGCCC ((((((....))).)))
Tm: 50.3 °C

Here is the next item to consider.
-- ask Identify measured Tm associated with GAAGGAGGAAACCCCTTC (((((.(....).)))))
-- reply 36.9 °C

====

- method_description: melting temperature; fluorescence melt of hairpins on a sequencing array, two-state fit, raised by 9.35 °C to match UV melts
- recorded_conditions: sodium 0.088 M
Below, each entry is listed alongside its reported Tm.
Your answer is read as °C, so omit the unit and give the number.

Previously resolved entries follow.
input_sequence: GGCCTCGGAAACGGGGTC (.((.((....)).)).)
endpoint_value: 48.6
--
input_sequence: GATCCGGCCTCGGATC ((((((....))))))
endpoint_value: 58.7

-- ask Identify measured Tm associated with GATCGTGATCACGATC ((((((....))))))
-- reply 58.2

-- ask Identify measured Tm associated with GACTACCGAAAGGTGTC (((.(((....))))))
-- reply 49.6

-- ask Identify measured Tm associated with GATCCACCCTTGGATC ((((((....))))))
-- reply 50.4

-- ask Identify measured Tm associated with GACAGCGAAAGCTTTGTC ((((((....)))..)))
-- reply 37.5

-- ask Identify measured Tm associated with GTGGGGGGAAACCCTCAC (((.(((....))).)))
-- reply 52.6

====

- method_description: folding enthalpy; higher = less favourable; fluorescence melt of hairpins on a sequencing array, two-state fit
- recorded_conditions: sodium 0.088 M
Below, each entry is listed alongside its reported folding enthalpy.
Your answer is read as kcal/mol, so omit the unit and give the number.

input_sequence: GCAGCTGGAAACAGTTGC (((.(((....))).)))
endpoint_value: -51.6
--
input_sequence: GATCTTGCATAAGATC ((((((....))))))
endpoint_value: -39.9
--
input_sequence: GATTCTGGAAACAGAGTC ((.((((....)))).))
endpoint_value: -30.2

-- ask Identify measured folding enthalpy associated with GGGCTGCGAAAGCACCCC (((.(((....))).)))
-- reply -18.2

-- ask Identify measured folding enthalpy associated with GCGGGTGCCGC ((((...))))
-- reply -23.3

-- ask Identify measured folding enthalpy associated with GCAATGCGAAAGCCCTGC (((..((....))..)))
-- reply -10.3

-- ask Identify measured folding enthalpy associated with GGAAGAGGAAACTCTTCC (((((((....)))))))
-- reply -42.1

-- ask Identify measured folding enthalpy associated with GTGACCGGAAACGATCAC ((((.((....)).))))
-- reply -39.6

====

Below, each entry is listed alongside its reported folding enthalpy.
- method_description: folding enthalpy; higher = less favourable; fluorescence melt of hairpins on a sequencing array, two-state fit
- recorded_conditions: sodium 0.088 M
Your answer is read as kcal/mol, so omit the unit and give the number.

Previously resolved entries follow.
input_sequence: GTCTGAGGAAACTCAAAC ((.((((....)))).))
observable: folding enthalpy
endpoint_value: -11.3
--
input_sequence: GGCACGGGAAACTGTGCC (((((.(....).)))))
observable: folding enthalpy
endpoint_value: -41.4
--
input_sequence: GCTTTTCGAAAGAAAGC (((.(((....))))))
observable: folding enthalpy
endpoint_value: -25.1
--
input_sequence: GCACCGGGAAACCGGCAC (..((((....))))..)
observable: folding enthalpy
endpoint_value: -8.06

-- ask Identify measured folding enthalpy associated with GTCTATCGAAAGATCGAC (((.(((....))).)))
-- reply -40.4

-- ask Identify measured folding enthalpy associated with GGTACTCCGAAAGGAACC (((..(((....))))))
-- reply -9.52

====

- method_description: folding enthalpy; higher = less favourable; fluorescence melt of hairpins on a sequencing array, two-state fit
- recorded_conditions: sodium 0.088 M
observable: folding enthalpy (kcal/mol)
Your answer is read as kcal/mol, so omit the unit and give the number.

input_sequence: GTGGTGCGAAAGCATCAC (((.(((....))).)))
unit: kcal/mol
folding enthalpy: -30.4

input_sequence: GATCAAGGAAACTTGGTC ((.((((....)))).))
unit: kcal/mol
folding enthalpy: -30.5

Here is the next item to consider.
-- ask Identify measured folding enthalpy associated with GTGTCGGAAACGACAC ((((((....))))))
-- reply -30.9

====

- method_description: melting temperature; fluorescence melt of hairpins on a sequencing array, two-state fit, raised by 9.35 °C to match UV melts
- recorded_conditions: sodium 0.088 M
observable: Tm (°C)
Your answer is read as °C, so omit the unit and give the number.

Previously resolved entries follow.
input_sequence: GGTCGTCGAAAGACAACC (((.(((....))).)))
Tm / °C: 48.9

input_sequence: GATCTGGCCCAGATC ((((((...))))))
Tm / °C: 49.7

input_sequence: GATCATTCTGATGATC ((((((....))))))
Tm / °C: 49.5

Here is the next item to consider.
-- ask Identify measured Tm associated with GGATCACGAAAGTGCTCC (((.(((....))).)))
-- reply 49.4

====

Below, each entry is listed alongside its reported Tm.
- method_description: melting temperature; fluorescence melt of hairpins on a sequencing array, two-state fit, raised by 9.35 °C to match UV melts
- recorded_conditions: sodium 0.088 M
Your answer is read as °C, so omit the unit and give the number.

Previously resolved entries follow.
input_sequence: GCTCCACGAAAGTGAAGC (((.(((....))).)))
observable: Tm
endpoint_value: 51.2

input_sequence: GTGAACCGAAAGGTCCAC (((.(((....))).)))
observable: Tm
endpoint_value: 49.8

input_sequence: GCCTCCGAAAGGAAGGGC ((((((....)))..)))
observable: Tm
endpoint_value: 50.2

-- ask Identify measured Tm associated with GGTAACCGAAAGGTACC (((.(((....))))))
-- reply 51.1

-- ask Identify measured Tm associated with GATCAAAGGGTTGATC ((((((....))))))
-- reply 39.1

-- ask Identify measured Tm associated with GCAAGGCGAAAGCGTAGC ((.(.((....)).).))
-- reply 40.5

====

- method_description: folding enthalpy; higher = less favourable; fluorescence melt of hairpins on a sequencing array, two-state fit
- recorded_conditions: sodium 0.088 M
observable: folding enthalpy (kJ/mol)
Your answer is read as kJ/mol, so omit the unit and give the number.

Previously resolved entries follow.
input_sequence: GACCCTGGAAACAGAGTC (((.(((....))).)))
unit: kJ/mol
folding enthalpy: -123

input_sequence: GTCCTTCGAAAGAATGAC (((.(((....))).)))
unit: kJ/mol
folding enthalpy: -127

input_sequence: GGCATAGGAAACCATGCC (((((.(....).)))))
unit: kJ/mol
folding enthalpy: -126

input_sequence: GCGAGCTCTCGC ((((....))))
unit: kJ/mol
folding enthalpy: -129

Here is the next item to consider.
-- ask Identify measured folding enthalpy associated with GACTTAGGAAACCAAGTC (((((.(....).)))))
-- reply -128

====

- method_description: melting temperature; fluorescence melt of hairpins on a sequencing array, two-state fit, raised by 9.35 °C to match UV melts
- recorded_conditions: sodium 0.088 M
Response key: Condition met means Tm >= 50 °C; Condition not met means Tm < 50 °C.

For orientation, consider the following solved cases.
input_sequence: AAGCAGAAATGCTT (((((....)))))
classification: Condition not met

input_sequence: GTCGGAGGAAACCCCGAC (((((.(....).)))))
classification: Condition met

input_sequence: GTTTGTACGAAAGTAAAC (((..(((....))))))
classification: Condition not met

input_sequence: ATTACGAAAGTAAT (((((....)))))
classification: Condition not met

input_sequence: GATCCCAAGGGGGATC ((((((....))))))
classification: Condition met

input_sequence: GATCGGTGTCCCGATC ((((((....))))))
classification: Condition met

-- ask Dear colleague, could you confirm whether GATCCCCTAAGGGATC ((((((....)))))) has Tm at or above 50 °C?
-- reply Condition met

-- ask Dear colleague, could you confirm whether GCTATTGGAAACAACAGC (((.(((....))).))) has Tm at or above 50 °C?
-- reply Condition not met

-- ask Dear colleague, could you confirm whether GATCACGTCCGTGATC ((((((....)))))) has Tm at or above 50 °C?
-- reply Condition met
